Origin of measurements: patent US12116343B2

Molecular target: G1 APOL1 (Homo sapiens, UniProt O14791, I384M/S342G)
Construct: expressed in transfected cells
Experiment: Acute APOL1 Thallium Assay with inducible stable clones of HEK 293 cells
Type: cell-based
Conditions: HEK 293 T-Rex cells expressing G1 APOL1; read-out: Thallium Assay (IC50)
IC50 values by entry

| Molecule | IC50 |
| --- | --- |
| O=C1CN(C(=O)[C@H]2C[C@@H](c3c(-c4ccc(F)cc4)[nH]c4c(F)cc(F)cc43)C2)CCN1 [Compound 275] | > 1000 nM |
| O=C(NC(CO)CO)[C@H]1C[C@@H](c2c(-c3ccc(F)cc3)[nH]c3c(F)cc(F)cc32)C1 [Compound 241] | > 1000 nM |
| O=C([C@H]1C[C@H](c2c(-c3ccc(F)cc3)[nH]c3c(F)cc(F)cc32)C1)N1CCC[C@@H](CO)C1 [Compound 109] | > 1000 nM |
| C[C@]1(NC(=O)[C@H]2C[C@H](c3c(-c4ccc(F)cc4)[nH]c4c(F)cc(F)cc43)C2)C[C@@H](O)C1 [Compound 211] | 250 to 1000 nM |
| CN1CCN(C(=O)CNC(=O)[C@H]2C[C@H](c3c(-c4ccc(F)cc4)[nH]c4c(F)cc(F)cc43)C2)CC1 [Compound 67] | > 1000 nM |
| O=C(NCC1(O)CCCC1)[C@H]1C[C@H](c2c(-c3ccc(F)cc3)[nH]c3c(F)cc(F)cc32)C1 [Compound 69] | > 1000 nM |
| CC(C)C(CO)NC(=O)[C@H]1C[C@H](c2c(-c3ccc(F)cc3)[nH]c3c(F)cc(F)cc32)C1 (some centres unmarked) [Compound 29] | > 1000 nM |
| O=C([C@H]1C[C@H](c2c(-c3ccc(F)cc3)[nH]c3c(F)cc(F)cc32)C1)N1CCC[C@@H](O)C1 [Compound 149] | 250 to 1000 nM |
| O=C([C@H]1C[C@H](c2c(-c3ccc(F)cc3)[nH]c3c(F)cc(F)cc32)C1)N1CCOC(O)C1 (some centres unmarked) [Compound 115] | 250 to 1000 nM |
| NC(=O)C1(NC(=O)[C@H]2C[C@H](c3c(-c4ccc(F)cc4)[nH]c4c(F)cc(F)cc43)C2)CC1 [Compound 56] | 250 to 1000 nM |
| O=C1C[C@@H](NC(=O)[C@H]2C[C@H](c3c(-c4ccc(F)cc4)[nH]c4c(F)cc(F)cc43)C2)C(=O)N1 [Compound 166] | < 250 nM |
| CC(NC(=O)[C@H]1C[C@H](c2c(-c3ccc(F)cc3)[nH]c3c(F)cc(F)cc32)C1)c1ccn(C)n1 (mixture of isomers) [Compound 75] | 250 to 1000 nM |
| O=C1NCCCC1NC(=O)[C@H]1C[C@H](c2c(-c3ccc(F)cc3)[nH]c3c(F)cc(F)cc32)C1 (some centres unmarked) [Compound 23] | 250 to 1000 nM |
| O=C(NC(CO)C1CC1)[C@H]1C[C@H](c2c(-c3ccc(F)cc3)[nH]c3c(F)cc(F)cc32)C1 (some centres unmarked) [Compound 199] | 250 to 1000 nM |

----------
IC50 values by entry
Target: G1 APOL1 (Homo sapiens, UniProt O14791, I384M/S342G)
Construct: expressed in transfected cells
Sequence (O14791 28-398 S342G/I384M): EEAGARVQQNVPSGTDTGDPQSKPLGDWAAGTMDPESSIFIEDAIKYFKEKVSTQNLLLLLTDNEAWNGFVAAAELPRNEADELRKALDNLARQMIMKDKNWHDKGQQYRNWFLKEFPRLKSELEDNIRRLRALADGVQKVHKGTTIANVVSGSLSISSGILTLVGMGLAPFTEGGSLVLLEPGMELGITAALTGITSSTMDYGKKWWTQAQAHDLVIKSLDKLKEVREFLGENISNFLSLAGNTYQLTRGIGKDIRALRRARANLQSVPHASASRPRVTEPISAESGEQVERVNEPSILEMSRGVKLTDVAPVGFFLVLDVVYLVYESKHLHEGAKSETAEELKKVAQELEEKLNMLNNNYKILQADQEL
Assay: Acute APOL1 Thallium Assay with inducible stable clones of HEK 293 cells
Format: cell-based
Conditions: HEK 293 T-Rex cells expressing G1 APOL1; read-out: Thallium Assay (IC50)
Source text: Acute APOL1 Thallium Assay with Inducible Stable Clones of HEK 293 Cells Apolipoprotein L1 (APOL1) proteins form potassium-permeable cation pores in the plasma membrane. APOL1 risk variants (G1 and G2) induce greater potassium flux than G0 in HEK293 cells. […] The increase of fluorescence in the assay represents the influx of Tl+ into the cell specifically through the potassium channel (i.e. through APOL1 pores), providing a functional measurement of potassium channel/pore activity. […]

| Compound | IC50 |
| --- | --- |
| O=C([C@H]1C[C@H](c2c(-c3ccc(F)cc3)[nH]c3c(F)cc(F)cc32)C1)N1CCC(CO)(CO)CC1 | > 1000 nM |
| O=C(NCC1COC1)[C@H]1C[C@@H](c2c(-c3ccc(F)cc3)[nH]c3c(F)cc(F)cc32)C1 | > 1000 nM |
| C[C@H](CO)NC(=O)[C@H]1C[C@@H](c2c(-c3ccc(F)cc3)[nH]c3c(F)cc(F)cc32)C1 | > 1000 nM |
| CN(CC(C)(C)O)C(=O)[C@H]1C[C@H](c2c(-c3ccc(F)cc3)[nH]c3c(F)cc(F)cc32)C1 | > 1000 nM |
| CC(C)N1CCN(C(=O)[C@H]2C[C@H](c3c(-c4ccc(F)cc4)[nH]c4c(F)cc(F)cc43)C2)CC1=O | > 1000 nM |
| CC(C)C(CO)NC(=O)[C@H]1C[C@@H](c2c(-c3ccc(F)cc3)[nH]c3c(F)cc(F)cc32)C1 (stereo partly drawn) | > 1000 nM |
| Cn1nccc1CNC(=O)[C@H]1C[C@@H](c2c(-c3ccc(F)cc3)[nH]c3c(F)cc(F)cc32)C1 | > 1000 nM |
| Cc1ccn(CCNC(=O)[C@H]2C[C@@H](c3c(-c4ccc(F)cc4)[nH]c4c(F)cc(F)cc43)C2)n1 | 250 to 1000 nM |
| O=C(N[C@H]1CC[C@@H]1O)[C@H]1C[C@H](c2c(-c3ccc(F)cc3)[nH]c3c(F)cc(F)cc32)C1 | > 1000 nM |
| O=C([C@H]1C[C@H](c2c(-c3ccc(F)cc3)[nH]c3c(F)cc(F)cc32)C1)N1CCCC(O)C1 (stereo partly drawn) | > 1000 nM |
| O=C(N[C@H]1CC[C@H](O)C1)[C@H]1C[C@H](c2c(-c3ccc(F)cc3)[nH]c3c(F)cc(F)cc32)C1 | > 1000 nM |
| C[C@@H](O)[C@@H](CO)NC(=O)[C@H]1C[C@H](c2c(-c3ccc(F)cc3)[nH]c3c(F)cc(F)cc32)C1 | 250 to 1000 nM |
| CC(C)[C@@H](CO)NC(=O)[C@H]1C[C@H](c2c(-c3ccc(F)cc3)[nH]c3c(F)cc(F)cc32)C1 | > 1000 nM |
| CC(NC(=O)[C@H]1C[C@H](c2c(-c3ccc(F)cc3)[nH]c3c(F)cc(F)cc32)C1)c1ccn[nH]1 (mixture of isomers) | 250 to 1000 nM |
| O=C(OC1CN(C(=O)[C@H]2C[C@H](c3c(-c4ccc(F)cc4)[nH]c4c(F)cc(F)cc43)C2)C1)C1CCOCC1 | 250 to 1000 nM |
| O=C(NCC1(O)COC1)[C@H]1C[C@H](c2c(-c3ccc(F)cc3)[nH]c3c(F)cc(F)cc32)C1 | 250 to 1000 nM |
| CC(O)CN(C)C(=O)[C@H]1C[C@H](c2c(-c3ccc(F)cc3)[nH]c3c(F)cc(F)cc32)C1 (stereo partly drawn) | > 1000 nM |
| O=C(O)CNC(=O)[C@H]1C[C@H](c2c(-c3ccc(F)cc3)[nH]c3c(F)cc(F)cc32)C1 | > 1000 nM |
| O=C([C@H]1C[C@H](c2c(-c3ccc(F)cc3)[nH]c3c(F)cc(F)cc32)C1)N1CC[C@H](CO)[C@H](O)C1 | > 1000 nM |
| NCCCNC(=O)[C@H]1C[C@H](c2c(-c3ccc(F)cc3)[nH]c3c(F)cc(F)cc32)C1 | 250 to 1000 nM |
| CN(CC1(CO)CC1)C(=O)[C@H]1C[C@H](c2c(-c3ccc(F)cc3)[nH]c3c(F)cc(F)cc32)C1 | > 1000 nM |
| CC(CO)N1CCN(C(=O)[C@H]2C[C@H](c3c(-c4ccc(F)cc4)[nH]c4c(F)cc(F)cc43)C2)CC1 (mixture of isomers) | > 1000 nM |
| COCC1(CNC(=O)[C@H]2C[C@H](c3c(-c4ccc(F)cc4)[nH]c4c(F)cc(F)cc43)C2)CC1 | > 1000 nM |
| COCCNC(=O)[C@H]1C[C@H](c2c(-c3ccc(F)cc3)[nH]c3c(F)cc(F)cc32)C1 | > 1000 nM |
| O=C([C@H]1C[C@H](c2c(-c3ccc(F)cc3)[nH]c3c(F)cc(F)cc32)C1)N(CCO)CCCO | > 1000 nM |
| O=C1C[C@H](NC(=O)[C@H]2C[C@H](c3c(-c4ccc(F)cc4)[nH]c4c(F)cc(F)cc43)C2)C(=O)N1 | < 250 nM |
| O=C(NCCn1cncn1)[C@H]1C[C@@H](c2c(-c3ccc(F)cc3)[nH]c3c(F)cc(F)cc32)C1 | > 1000 nM |
